test: self-splicing fitness, log relative to wild type (ln ratio); higher = more splicing; Tetrahymena group I intron in knt gene, E. coli kanamycin selection, DiMSum; sequences stand for … in CUCUCU…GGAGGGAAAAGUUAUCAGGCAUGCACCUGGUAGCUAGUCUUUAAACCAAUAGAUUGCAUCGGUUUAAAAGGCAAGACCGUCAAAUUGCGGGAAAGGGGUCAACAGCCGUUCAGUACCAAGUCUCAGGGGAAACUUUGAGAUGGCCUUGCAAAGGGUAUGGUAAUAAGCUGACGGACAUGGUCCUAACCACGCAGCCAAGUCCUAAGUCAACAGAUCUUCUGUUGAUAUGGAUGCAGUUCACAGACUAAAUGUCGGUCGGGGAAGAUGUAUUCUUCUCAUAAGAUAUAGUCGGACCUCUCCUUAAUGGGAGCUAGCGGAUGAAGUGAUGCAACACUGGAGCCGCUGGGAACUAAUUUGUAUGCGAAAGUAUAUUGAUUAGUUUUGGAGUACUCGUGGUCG; conditions: 30 °C;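 also: selection with 25 µg/mL kanamycin versus none on LB agar overnight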
# key: entry, value: self-splicing fitness (ln)
The response must contain the number and no unit.

Worked set:
UUCGAGCAAUAUUACGUACA -2.27
AGCCAGCAAUAUUACGUAGU -2.72
CGUGAGCAAUAUUACGUAGU -4.5
UAAAAGCAAUAUUACGUUGC -3.72
GCACAGCAAUAUUACGUAAG -1.38

Then there is this sequence:
Measured self-splicing fitness (ln) of `CUUUAGCAAUAUUACGAUGA` : -3.2
